- System: HT29 colon
- assay-explanation: NCI-60 one-dose screen, 48 h (100 = growth as untreated, 0 = no growth, -100 = all killed)
- condition-parameters: 10 µM unless noted
About 83,000 compounds went through this panel and 20% of them were active in at least one assay; those are over-represented in the sample as a whole.
Decision: growth compared against 10%; not below it gives fulfilled, below it gives not fulfilled.

- compound: "CC(C)n1nc(-c2ccc3oc(N)nc3c2)c2c(N)ncnc21"
  group: "not fulfilled"
- compound: "CN1CCN(Cc2ccc(NC(=O)c3cncc(C#Cc4cnc(N)c5ccc(C#N)cc45)c3)cc2C(F)(F)F)CC1"
  group: "not fulfilled"
- compound: "C=C(C)Cn1c(SCC(=O)c2cccs2)nc2sc3c(c2c1=O)CCCC3"
  group: "fulfilled"
- compound: "CCNCCNc1c(C)c(-c2ccc(C(F)(F)F)cc2)c(C#N)c2nc3ccccc3n12"
  group: "fulfilled"
- compound: "O=C(Nc1cccc(Cl)c1)Oc1c(Cl)c(Cl)c(Cl)c(Cl)c1Cl"
  group: "fulfilled"

Query: Given "CC(C)(C)[C@H](OCc1cn([C@H]2C[C@@H](O)[C@@H](CO)O2)c(=O)[nH]c1=O)c1ccc(C#Cc2ccccc2)cc1[N+](=O)[O-]" , state whether its growth is at least 10%.
Reply: fulfilled

###

- Tested on: MDA-MB-435 melanoma
- assay-explanation: NCI-60 one-dose screen, 48 h (100 = growth as untreated, 0 = no growth, -100 = all killed)
- condition-parameters: 10 µM unless noted
About 83,000 compounds went through this panel and 20% of them were active in at least one assay; those are over-represented in the sample as a whole. Calls of active or inactive are those of the source. How the source made its calls: active means growth percent below 10; inactive means the rest.
value-kind: growth

Known results for compounds:
- compound: "CCCNNC(=O)c1ccc(CNC(=O)/C=C/c2ccccc2)cc1"
  value-kind: "growth"
  test-result: "31.8% [2.5 µM] (inactive)"
- compound: "O=C(Nc1ccc(Cl)cc1)C1=NCCCCN1"
  value-kind: "growth"
  test-result: "72.6% (inactive)"
- compound: "CSc1nc(N)c2c(n1)NC(c1ccccc1)C1CCc3ccccc3C1=N2 (centres undefined)"
  value-kind: "growth"
  test-result: "55.9% (inactive)"

Now consider the entry below.
Query: For the compound "COc1ccc(-n2c(=O)n(-c3ccc(-c4nc5ccc(F)cc5s4)cc3)c(=O)c3cccnc32)cc1" , report growth.
Reply: 102% (inactive)

###

- Test system: HCT-15 colon
- assay-explanation: NCI-60 one-dose screen, 48 h (100 = growth as untreated, 0 = no growth, -100 = all killed)
- condition-parameters: 10 µM unless noted
This is part of a sample that, as a whole, favours compounds with a hit. Of some 83,000 tested, about 20% had one in any assay.
Mark Fulfilled only when growth stays strictly below 80%. Values equal to the cut-off are Not fulfilled.

As a guide, the following entries are already answered.
- molecule: "CNC1=C([N+](=O)[O-])C(c2ccc(OC)cc2)C(C#N)=C(c2ccc[nH]2)O1 (stereo unspecified)"
  group: "Not fulfilled"
- molecule: "Cc1ccc(S(=O)(=O)N(CCC(=O)O)c2ccccc2)cc1"
  group: "Not fulfilled"

Query: Is growth of Clc1nc(N2CCC[N+]3(CC2)CC[N+]2(CCCNCC2)CC3)nc(N2CCC[N+]3(CC2)CC[N+]2(CCCNCC2)CC3)n1 (stereo unspecified) strictly below 80%?
Reply: Not fulfilled

Query: Is growth of "O=C(O)c1cc2ccccc2s1" strictly below 80%?
Reply: Not fulfilled

Query: Is growth of "CC(C)CCc1nc2ccc(NCc3ccc(OCCN4CCC(C)CC4)cc3)cc2[nH]1" strictly below 80%?
Reply: Fulfilled

Query: Is growth of "N#CSCc1cc(Cl)c(CSC#N)cc1Cl" strictly below 80%?
Reply: Fulfilled

Query: Is growth of "CC(=O)OCCOc1cc(Cl)c(Cl)cc1Cl" strictly below 80%?
Reply: Not fulfilled

Query: Is growth of "Brc1ccc(-c2nn(-c3ccccc3)cc2-c2nn[nH]n2)s1" strictly below 80%?
Reply: Not fulfilled
